Hello, the source for this data is patent US20050267024A1, in case you need it.

- assayTarget: T1, VEGFR-1-Fc (human, UniProt P17948 27-331)
- T1 construct: domain: first three Ig domains; expressed in Drosophila S2 cells, purified on Protein A sepharose; also called VEGFR-1-Fc fusion protein; not shown: Fc fragment from the Signal-pIgPlus vector
- T1 sequence (P17948 27-331): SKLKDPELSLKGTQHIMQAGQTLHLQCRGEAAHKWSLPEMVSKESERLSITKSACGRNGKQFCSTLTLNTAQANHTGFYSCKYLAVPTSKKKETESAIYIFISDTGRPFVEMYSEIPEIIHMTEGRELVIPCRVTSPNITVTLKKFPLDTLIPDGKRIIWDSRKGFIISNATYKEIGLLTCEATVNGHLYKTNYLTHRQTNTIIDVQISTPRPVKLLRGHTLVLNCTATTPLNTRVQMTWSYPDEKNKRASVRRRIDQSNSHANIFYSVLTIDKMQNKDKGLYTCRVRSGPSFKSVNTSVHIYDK
- assayExplanation: receptor-Fc IP

{"binder": "12-13 (ligand) GQNHHEVVKFMDVYQRSYCHPIETLVDIFQEFGVATNTFFKPPCVSVYRCGGCCNDEGLECVPTEESNITMQIMRITVPLSQGPKPVTISFANHTSCRCMSKLN", "binding result": "binds"}
{"binder": "53-3 (ligand) AHYNTEILKSIDNEWRKTQCMPIETLVDIFQEYPDEIEYIFKPPCVSVYRCGGCCNSEGLQCVPTEESNITMQIMRIKPHQGQHIGEMSFLQHNKCECRPKKD", "binding result": "binds"}
